Origin of the recorded values: patent US8623429B2

experiment: Example 3: stability of black currant extract anthocyanosides, 4 hours at 37° C., pH 7.0, with/without DHLA, GSH or L-cysteine (HPLC); assay type: physicochemical; conditions: unprotected, pH 7.0, 37° C., 4 hours
recorded endpoint: Peak Area, Blank
// no unit string in output, number only

Reference set, count: 3
C[C@@H]1O[C@@H](OC[C@H]2O[C@@H](Oc3cc4c(O)cc(O)cc4[o+]c3-c3ccc(O)c(O)c3)[C@H](O)[C@@H](O)[C@@H]2O)[C@H](O)[C@H](O)[C@H]1O [Cn-3-O-Rut, Cyanidin-3-O-rutinoside]: 1183
C[C@@H]1O[C@@H](OC[C@H]2O[C@@H](Oc3cc4c(O)cc(O)cc4[o+]c3-c3cc(O)c(O)c(O)c3)[C@H](O)[C@@H](O)[C@@H]2O)[C@H](O)[C@H](O)[C@H]1O [Dp-3-O-Rut, Delphinidin-3-O-rutinoside]: 626.2
OC[C@H]1O[C@@H](Oc2cc3c(O)cc(O)cc3[o+]c2-c2cc(O)c(O)c(O)c2)[C@H](O)[C@@H](O)[C@@H]1O [Dp-3O-Glc, Delphinidin 3-o-glucoside]: 140.8

Pending compound:
QUERY: Suppose we examine the compound OC[C@H]1O[C@@H](Oc2cc3c(O)cc(O)cc3[o+]c2-c2ccc(O)c(O)c2)[C@H](O)[C@@H](O)[C@@H]1O [Cn-3O-Glc, Cyanidin 3-o-glucoside] ; what Peak Area, Blank value has been reported?
RESULT: 154.0
